Values were extracted from patent US6407217B1.

biological target: monoclonal antibody 3A2.2; assay: Indirect competitive enzyme immunoassay, monoclonal antibody 3A2.2; type: binding, mouse; conditions: MAb 3A2.2, coating antigen I
Quick reference for I50 (half-maximal inhibition) among some compounds

// below: answered compounds
compound | I50 (half-maximal inhibition)
CC(C)C1(C)N=C(c2nc3ccccc3cc2C(=O)O)NC1=O (stereo not shown) | 3 ppb (ng/mL)
Cc1cnc(C2=NC(C)(C(C)C)C(=O)N2)c(C(=O)O)c1 (stereo not shown) | 27 ppb (ng/mL)
CCc1cnc(C2=NC(C)(C(C)C)C(=O)N2)c(C(=O)O)c1 (stereo not shown) | 21 ppb (ng/mL)

Now consider the entry below.
May I ask what I50 (half-maximal inhibition) has been recorded for CC(C)C1(C)N=C(c2ncccc2C(=O)O)NC1=O (stereo not shown) ? 331 ppb (ng/mL)

* * *

target: monoclonal antibody 3A2.2; assay: Indirect competitive enzyme immunoassay, monoclonal antibody 3A2.2; type: binding, mouse; details: MAb 3A2.2, coating antigen G
We begin with a simple list: items and their reported I50 (half-maximal inhibition).

compound | property-label | obs-value
CCc1cnc(C2=NC(C)(C(C)C)C(=O)N2)c(C(=O)O)c1 (stereo not shown) | I50 (half-maximal inhibition) | 34 ppb (ng/mL)
CC(C)C1(C)N=C(c2nc3ccccc3cc2C(=O)O)NC1=O (stereo not shown) | I50 (half-maximal inhibition) | 5 ppb (ng/mL)
CC(C)C1(C)N=C(c2ncccc2C(=O)O)NC1=O (stereo not shown) | I50 (half-maximal inhibition) | 290 ppb (ng/mL)

Look at this compound and give its reported I50 (half-maximal inhibition). Cc1cnc(C2=NC(C)(C(C)C)C(=O)N2)c(C(=O)O)c1 (stereo not shown) 31 ppb (ng/mL)

* * *

target: monoclonal antibody 1D2.6; assay: Indirect competitive enzyme immunoassay, monoclonal antibody 1D2.6; type: binding, mouse; details: MAb 1D2.6, coating antigen I
Reported values of I50 (half-maximal inhibition) for individual entries

compound | property-label | obs-value
CC(C)C1(C)N=C(c2ncccc2C(=O)O)NC1=O (stereo not shown) | I50 (half-maximal inhibition) | >1,000 ppb (ng/mL)
CCc1cnc(C2=NC(C)(C(C)C)C(=O)N2)c(C(=O)O)c1 (stereo not shown) | I50 (half-maximal inhibition) | 20 ppb (ng/mL)
Cc1cnc(C2=NC(C)(C(C)C)C(=O)N2)c(C(=O)O)c1 (stereo not shown) | I50 (half-maximal inhibition) | 250 ppb (ng/mL)

--- query ---
Which value of I50 (half-maximal inhibition) has been reported for CC(C)C1(C)N=C(c2nc3ccccc3cc2C(=O)O)NC1=O (stereo not shown) in the records? 2,000 ppb (ng/mL)
